test system: E. coli TESEC Mtb Asd; assay: growth (OD600 after 10 h); higher = more growth (less inhibition); conditions: arabinose induction (level): High; compound 0.1 mM; raw OD600 reference: median of DMSO wells 0.331, cell-free background 0.041
Structures can show the parent of a compound that is named as a salt.
Classification field: y = growth at or over 0.3; n = growth under 0.3.

Item CC(C)NCC(O)c1ccc(O)c(O)c1 (single isomer, unassigned; (-)) [(-)-Isoproterenol hydrochloride] with growth of 0.3 or above? n

Item CNC(=C[N+](=O)[O-])NCCSCc1ccc(CN(C)C)o1 [Ranitidine hydrochloride] with growth of 0.3 or above? y

Item CCOC(=O)[C@H](CCc1ccccc1)N[C@@H](C)C(=O)N1[C@H](C(=O)O)C[C@@H]2CCC[C@@H]21 with growth of 0.3 or above? n

Item CC1CCc2c(N3CCC(O)CC3)c(F)cc3c(=O)c(C(=O)O)cn1c23 (stereo not drawn) with growth of 0.3 or above? n

Item CCN(CC)CCOCCOC(=O)C1(c2ccccc2)CCCC1 [Carbetapentane citrate] with growth of 0.3 or above? n

Item CC1c2cccc(O)c2C(O)=C2C(=O)C3(O)C(O)=C(C(N)=O)C(=O)C(N(C)C)C3C(O)C21 (stereo not drawn) [Doxycycline hydrochloride] with growth of 0.3 or above? n

Item CC1(C)S[C@@H]2[C@H](NC(=O)[C@H](C(=O)O)c3ccsc3)C(=O)N2[C@H]1C(=O)O [Ticarcillin sodium] with growth of 0.3 or above? y

Item NS(=O)(=O)c1cc2c(cc1Cl)NCNS2(=O)=O [Hydrochlorothiazide] with growth of 0.3 or above? y

###

system: E. coli TESEC Mtb Alr; test: growth (OD600 after 10 h); higher = more growth (less inhibition); details: arabinose 10000 nM; compound 0.1 mM; raw OD600 reference: median of DMSO wells 0.264, cell-free background 0.041
Structures can show the parent of a compound that is named as a salt.
METRIC_NAME: growth
Give the figure only, with no unit attached.

Returns the measured growth for the input compound. Input: CN(Cc1cc(Br)cc(Br)c1N)C1CCCCC1 [Bromhexine hydrochloride] 0.0411

Returns the measured growth for the input compound. Input: CCc1nc(N)nc(N)c1-c1ccc(Cl)cc1 0.0978

Returns the measured growth for the input compound. Input: CCCc1nn(C)c2c(=O)[nH]c(-c3cc(S(=O)(=O)N4CCN(C)CC4)ccc3OCC)nc12 0.275

Returns the measured growth for the input compound. Input: Nc1cc(C(Cl)=C(Cl)Cl)c(S(N)(=O)=O)cc1S(N)(=O)=O 0.269

Returns the measured growth for the input compound. Input: Clc1ccc(CCC(Cn2ccnc2)Sc2c(Cl)cccc2Cl)cc1 (stereo not drawn) [Butoconazole nitrate] 0.066

Returns the measured growth for the input compound. Input: C#C[C@]1(O)CC[C@H]2[C@@H]3CCC4=Cc5oncc5C[C@]4(C)[C@H]3CC[C@@]21C 0.174

Returns the measured growth for the input compound. Input: COc1ccccc1OCCNCC(O)COc1cccc2[nH]c3ccccc3c12 (stereo not drawn) 0.046

Returns the measured growth for the input compound. Input: C[C@H](O)C(=O)Nc1c(I)c(C(=O)NC(CO)CO)c(I)c(C(=O)NC(CO)CO)c1I 0.287

Returns the measured growth for the input compound. Input: CN1CCCN=C1/C=C/c1cccs1 [Pyrantel tartrate] 0.268

Returns the measured growth for the input compound. Input: c1ccc([C@H]2CN3CCSC3=N2)cc1 [Levamisole hydrochloride] 0.279

Returns the measured growth for the input compound. Input: O=C1NCN(c2ccccc2)C12CCN(CCCC(c1ccc(F)cc1)c1ccc(F)cc1)CC2 0.0402

Returns the measured growth for the input compound. Input: CN/C(=N\CCSCc1nc[nH]c1C)NC#N 0.252

Returns the measured growth for the input compound. Input: COC(=O)C1=C(C)NC(C)=C(C(=O)OC(C)C)C1c1cccc2nonc12 (stereo not drawn) 0.254

Returns the measured growth for the input compound. Input: NC[C@@H]1O[C@H](O[C@H]2[C@@H](O)[C@H](O[C@@H]3[C@@H](O)[C@H](N)C[C@H](N)[C@H]3O[C@H]3O[C@H](CO)[C@@H](O)[C@H](O)[C@H]3N)O[C@@H]2CO)[C@H](N)[C@@H](O)[C@@H]1O [Paromomycin sulfate] 0.275

Returns the measured growth for the input compound. Input: C#C[C@]1(O)CC[C@H]2[C@@H]3[C@H](C)CC4=C(CCC(=O)C4)[C@H]3CC[C@@]21C 0.155

Returns the measured growth for the input compound. Input: C=CCN1CCCC1CNC(=O)c1cc2nn[nH]c2cc1OC (stereo not drawn) [Alizapride HCl] 0.271

Returns the measured growth for the input compound. Input: COc1cc(C(=O)NCc2ccc(OCCN(C)C)cc2)cc(OC)c1OC [Trimethobenzamide hydrochloride] 0.254

Returns the measured growth for the input compound. Input: CN[C@@H]1[C@@H](O)[C@@H](O[C@@H]2[C@@H](O)[C@H](O[C@H]3OC(CN)=CC[C@H]3N)[C@@H](N)C[C@H]2N)OC[C@]1(C)O [Sisomicin sulfate] 0.0404

Returns the measured growth for the input compound. Input: CCN(CC)CCNC(C(=O)OCCC(C)C)c1ccccc1 (stereo not drawn) [Camylofine chlorhydrate] 0.261

Returns the measured growth for the input compound. Input: Nc1ccn([C@H]2CC[C@@H](CO)O2)c(=O)n1 0.279

Returns the measured growth for the input compound. Input: Cc1ccsc1/C=C/C1=NCCCN1C [Morantel tartrate] 0.252

Returns the measured growth for the input compound. Input: NC[C@@H]1O[C@@H](O[C@H]2[C@H](O)[C@@H](O[C@H]3O[C@H](CO)[C@@H](O)[C@H](N)[C@H]3O)[C@H](N)C[C@@H]2N)[C@@H](O)[C@H](O)[C@H]1O [Kanamycin A sulfate] 0.263

Returns the measured growth for the input compound. Input: CCCCC(CC)CN1CN(CC(CC)CCCC)CC(C)(N)C1 (stereo not drawn) 0.309

Returns the measured growth for the input compound. Input: CCN1CCC[C@H]1CNC(=O)c1c(O)c(Cl)cc(Cl)c1OC [Raclopride] 0.148

Returns the measured growth for the input compound. Input: CN(c1nccc(=O)[nH]1)C1CCN(c2nc3ccccc3n2Cc2ccc(F)cc2)CC1 0.172

Returns the measured growth for the input compound. Input: CCOC(=O)O[C@]1(C(=O)COC(=O)CC)CC[C@H]2[C@@H]3CCC4=CC(=O)C=C[C@]4(C)[C@H]3[C@@H](O)C[C@@]21C [Prednicarbate] 0.271

Returns the measured growth for the input compound. Input: CC(=O)Nc1c(I)c(NC(C)=O)c(I)c(C(=O)O)c1I [Diatrizoic acid dihydrate] 0.255

Returns the measured growth for the input compound. Input: CCn1cc(C(=O)O)c(=O)c2cc(F)c(N3CCNC(C)C3)c(F)c21 (stereo not drawn) [Lomefloxacin hydrochloride] 0.0399

Returns the measured growth for the input compound. Input: N[C@@H](C(=O)N[C@@H]1C(=O)N2C(C(=O)O)=C(Cl)CC[C@H]12)c1ccccc1 0.224

Returns the measured growth for the input compound. Input: Cc1cc(C(=O)NNCc2ccccc2)no1 0.28

Returns the measured growth for the input compound. Input: N[C@@H]1CONC1=O 0.0389

Returns the measured growth for the input compound. Input: C=CCc1ccccc1OCC(O)CNC(C)C (stereo not drawn) [Alprenolol hydrochloride] 0.259

Returns the measured growth for the input compound. Input: CCN(CC)CCOC(=O)C(Cc1cccc2ccccc12)CC1CCCO1 (stereo not drawn) [Nafronyl oxalate] 0.255
